- Test system: pigweed
- measurement.notes: Test C postemergence
- Format: in vivo, Amaranthus retroflexus
- test.parameters: 125 g ai/ha
measurement.label: Plant response rating (scale of 0 to 100 where 0 is no effect and 100 is complete control)
Give bare numbers.

Below: 3 compounds and their reported Plant response rating (scale of 0 to 100 where 0 is no effect and 100 is complete control).
[
  {
    "compound": "CCCOc1nc(-c2ccccc2)nn1Cc1ccnc(C(F)(F)F)c1 [Compound 33]",
    "measurement": 98
  },
  {
    "compound": "CCOc1nc(-c2ccc(Cl)cc2)nn1Cc1ccnc(C(F)(F)F)c1 [Compound 26]",
    "measurement": 98
  },
  {
    "compound": "FC(F)(F)COc1nc(-c2ccc(Cl)cc2)nn1Cc1ccnc(C(F)(F)F)c1 [Compound 31]",
    "measurement": 100
  }
]

With those in mind, consider the next compound.
Recorded result, CCc1nc(-c2ccc(C(F)(F)F)cc2)nn1Cc1ccnc(C(F)(F)F)c1 [Compound 1] , Plant response rating (scale of 0 to 100 where 0 is no effect and 100 is complete control): 98

###

- Test system: ryegrass, Italian
- measurement.notes: Test A postemergence
- Assay type: in vivo, Lolium multiflorum
- test.parameters: 125 g ai/ha, 0 to 100 scale (0 no effect, 100 complete control), approx. 10 d
Kindly state Plant response rating, Ryegrass, Italian for each of the entries shown.
Give bare numbers.

[
  {
    "compound": "Fc1ccc(-c2nc(OCC(F)(F)F)n(Cc3ccnc(C(F)(F)F)c3)n2)cc1 [Compound 30]",
    "Plant response rating, Ryegrass, Italian": 50
  },
  {
    "compound": "COc1nc(-c2ccccc2)nn1Cc1ccnc(C(F)(F)F)c1 [Compound 32]",
    "Plant response rating, Ryegrass, Italian": 0
  },
  {
    "compound": "CCOc1nc(-c2ccc(C(F)(F)F)cc2)nn1Cc1ccnc(C(F)(F)F)c1 [Compound 35]",
    "Plant response rating, Ryegrass, Italian": 60
  },
  {
    "compound": "COc1nc(-c2ccc(OC(F)(F)F)cc2)nn1Cc1ccnc(C(F)(F)F)c1 [Compound 40]",
    "Plant response rating, Ryegrass, Italian": 0
  }
]

Recorded result, Cc1nc(-c2ccc(Br)cc2)nn1Cc1ccnc(C(F)(F)F)c1 [Compound 36] , Plant response rating, Ryegrass, Italian: 0

###

Kindly state pest or weed control at 500 g/ha for each of the entries shown.
- Tested on: pigweed
- measurement.notes: Test A preemergence
- Format: in vivo, Amaranthus retroflexus
- test.parameters: Amaranthus retroflexus, pre-emergence, 240 h, 500 g ai/ha, 0 to 100 scale (0 no effect, 100 complete control), approx. 10 d, read-out: Plant response rating, Pigweed
Answers are plain numbers, in %.

[
  {
    "molecule": "Cn1nc(-c2ccc(F)cc2)nc1C(O)c1ccnc(C(F)(F)F)c1 (stereo not drawn) [Compound 14]",
    "tested.target": "pigweed",
    "measurement.label": "pest or weed control at 500 g/ha",
    "measurement": 100
  }
]

Look up pest or weed control at 500 g/ha for the entries below, preserving their order.
1. CCc1nc(-c2ccc(C(F)(F)F)cc2)nn1Cc1ccnc(C(F)(F)F)c1 [Compound 1]
2. CCOc1nc(-c2ccc(F)cc2)nn1Cc1ccnc(C(F)(F)F)c1 [Compound 8]

Given back:
1. 100
2. 100

Look up pest or weed control at 500 g/ha for the entries below, preserving their order.
1. COc1nc(-c2ccc(F)cc2)nn1Cc1ccnc(C(F)(F)F)c1 [Compound 9]
2. CS(=O)(=O)c1nc(-c2ccc(F)cc2)nn1Cc1ccnc(C(F)(F)F)c1 [Compound 29]
3. CCCn1nc(-c2ccc(F)cc2)nc1Cc1ccnc(C(F)(F)F)c1 [Compound 17]

Given back:
100
0
100
